B1: glmS ribozyme (parent)
chain: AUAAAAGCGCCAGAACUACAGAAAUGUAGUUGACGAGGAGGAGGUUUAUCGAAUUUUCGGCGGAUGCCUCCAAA

Variants of: B1
Experiment: self-cleavage kobs at 10000 uM GlcN6P; higher = faster cleavage; RNA array
Settings: with glucosamine-6-phosphate
Fewer inactive variants are shown than the library holds.
Entries and their self-cleavage kobs at 10000 uM GlcN6P values follow.
reported-metric: self-cleavage kobs at 10000 uM GlcN6P (s⁻¹)

| sequence | reading-unit | comparative-sign | measured-value |
| --- | --- | --- | --- |
| AUAAAAGCGCCAGAACUACAGAAAUGUAGUUGACGAGGAGGAUGUUUAUCGAAUUUUCGGCGGAAGCCUCCAAA [G43U U65A] | s⁻¹ | = | 2.64e-05 |
| AUAAAAGGGCCAGAACUACAGAAAUGUAGAUGACGAGGGGCAGGUUUAUCGAAGUUUCGGCGGAUGACUCCAAA [C8G U30A A39G G41C U54G C67A] | s⁻¹ | < | 1e-05 |
| AUAAAAGCGCCGGAACUACAGAAAUGUAGUUGACGAGGUGGAGGUUUAUCGAAUUUUCGGCGGAUGCCUCCAAA [A12G A39U] | s⁻¹ | = | 0.00035 |
| AUAAAAGCGCCUGAACUACAGAAAUGUAGUUGACGAGGACUAGGUUUAUCGAAUUUUCGGCGGAUGCCUCCAAA [A12U G40C G41U] | s⁻¹ | = | 6.81e-05 |
| AUAAAAGCGACAGAAUUACAGAAAUGUAGUUGACGAGGAGGAGGUUUAUCGCAUUUUCGGCGGAUGCCUCCAAA [C10A C16U A52C] | s⁻¹ | < | 1e-05 |
| AUAAAAGCGCCAGAACUACAGAAAUGUAGUUGACGAUGAAGAGGUUUAUCGAAUUUUCGGCGGAUGCCUCCAAA [G37U G40A] | s⁻¹ | < | 1e-05 |
| AUAAAAGCGCCAGUACUACAGAAAUGUAGGUGAUGAGGAAGAGGUUUAUCGGAUUUUCGGCGGAUGCGUCCAAA [A14U U30G C34U G40A A52G C68G] | s⁻¹ | < | 1e-05 |
| AUAAAAGCGCCAGGACUACAGAAAUGUAGUUGACGAGCAGGAGAUUUAUCGAAUUUUCGGCGGAUGCCUCCAAA [A14G G38C G44A] | s⁻¹ | < | 1e-05 |
| AUAAAAGCGCCAGAACUACAGAAAUGUAGUUGACGAGUAUCAGGUUCAUCGAAUUUUCCGCGGAUGCGUCCAAA [G38U G40U G41C U47C G59C C68G] | s⁻¹ | < | 1e-05 |
| AUAAAAGCGCCAGAACUACAGAAAUGUAGUUGACGCGGAGGAGGUUUAUCGAAUUUUCGGCGGAUGCGUCCAAA [A36C C68G] | s⁻¹ | = | 8.61e-05 |
| AUAAAAGCGCCAGAACUACAGAAAUGUAAUUGACGAGGAGGAGGUUUAUCGAAUUUUCGGCGGAUGGCUCCAAA [G29A C67G] | s⁻¹ | = | 0.000145 |
| AUAAAAGCGCCAGAACUACAGAAAUGUAGUUGACGAGGGGGAGGCUUAUCGAAUUUUCGGCGGAUGUCUCCAAA [A39G U45C C67U] | s⁻¹ | = | 0.00434 |
| AUAAAAGCGCCAGAACUACAGAAAUGUAGUUGACGAGGGGGAGGUUUAUCGAAUUUUCGGCGGAUACCUCCAAA [A39G G66A] | s⁻¹ | = | 0.0342 |
| AUAAAAGCGCCAGAACUACAGAAAUGUAGUUGACGAGGAGGAGGUUGAUCGAAGUUUCGGCGGAUGCCUCCAAA [U47G U54G] | s⁻¹ | = | 0.00685 |
| AUAAAAGCGCCACAACUACAGAAAUGUAGUUGAUGAGGAGGAGGUUUAUCGAAUUUUCGGCGGAUGCCUCCAAA [G13C C34U] | s⁻¹ | < | 1e-05 |
| AUAAAAGCGCCUGAACUACAGAAAUGUAGUUGAUGAGGAGUAGGUUUAUCGAAUUUUCGGCGGAUCCCUCCAAA [A12U C34U G41U G66C] | s⁻¹ | < | 1e-05 |
| AUAAACCCGCCAGAACUACAGAAAUGUAGUUGACGAGGAGGAGGUUUAUCGAAUUUUCGGCGGAUGCCUCCAAA [A6C G7C] | s⁻¹ | < | 1e-05 |
| AUAAAAGCGCCAGCACUACAGAAAUGUAGUUGACGAGGAGGAGGUUUAUCGAAUUUUCGGGGGAUGCCUCCAAA [A14C C61G] | s⁻¹ | < | 1e-05 |
| AUAAAAUCGCCAGAACUACAGAAAUGUAGUUGACGAAGAGGAGGUUUAUCGAAUUUUCGGCGGAUGCCUCCAAA [G7U G37A] | s⁻¹ | < | 1e-05 |
| AUAAAAGCGCCAGAAUUACAGAAAUGUAGUUUACGAGGAAGAGGUUUAUCGAAUUUUCGGCGGAUGCCUCGAAA [C16U G32U G40A C71G] | s⁻¹ | = | 0.0002 |
| AUAAAAGCGCCAGAACUACAGAAAUGUAGUUGACGAGGAGGGGGUUUAUCGAAUCUUCGGCGGAUUCCUCCAAA [A42G U55C G66U] | s⁻¹ | = | 0.00167 |
| AUAAAAGCGCCAGAACUACAGAAAUGUAGUUGACGAGGAGGAGGUUUAUCGGAUUUUCGGCGGAUGCCUCUAAA [A52G C71U] | s⁻¹ | = | 0.00138 |
| AUAAAAGCGCCAGAACUACAGAAAUGUAGUUGACGAGGAGGAGGUCUAUCGAAUUUUCGGCGGUUGCCUCCAAA [U46C A64U] | s⁻¹ | = | 4.69e-05 |
| AUAAAAGCGCCAGAACUACAGAAAUGUAGUUGACGAGGACGAGGUUUAUCCAAUUUACGGCGGAUGCCUCCAAA [G40C G51C U57A] | s⁻¹ | < | 1e-05 |
| AUAAAAGCGCCAGAACUACAGAAAUGUAGUUGACGAAGAGGAGGUUUAUCGAAUUUUCGGCGGAUGCUUCCAAA [G37A C68U] | s⁻¹ | = | 5.51e-05 |
| AUAAAAGCGCCAGAACUACAGAAAUGUAGUUGACGAGGAGCAGGUUUAUCGAAUUCUCGGCGGAUGCCUCCAAA [G41C U56C] | s⁻¹ | = | 3.26e-05 |
| AUAAAAGCGGCAGAACUACAGAAAUGUAGUUGGCGAGGAGGAGGUUUAUCUAAUUUUCGGCGGAUGCCUCCAAA [C10G A33G G51U] | s⁻¹ | < | 1e-05 |
| AUAAAAGCGCCAGAACUACAGAAAUGUAGUUGACGAGGAGCAGGUUUAUCAUAUUUUCGGCGGAUGACUCCAAA [G41C G51A A52U C67A] | s⁻¹ | < | 1e-05 |
| AUAAAAGCGCCAGAACUACAGAAAUGUAGUUGACGAGGAGGGGGUUUAUCGAAUUUACGGCGGAUGCCUCCAAA [A42G U57A] | s⁻¹ | = | 0.000266 |
| AUAAAAGCGCCAGAACUACAGAAAUGUAGUUGACGAGGAGGAGGUGUAUCGAAUUUUCGGCGGAUGCCUCUAAA [U46G C71U] | s⁻¹ | = | 0.00576 |
| AUAAAAGCGCUAGAACUACAGAAAUGUAGUUGACGAGGAGGCGGUUUAUCGAAUUAUCGGCGGAUGCAUCCAAA [C11U A42C U56A C68A] | s⁻¹ | < | 1e-05 |
| AUAAAAGCGCCAGAACUACAGAAAUGUAGUUGACGAGGAGGAGGUUUAUGGAAGUUUCGGCGGAGGCCUCCAAA [C50G U54G U65G] | s⁻¹ | < | 1e-05 |
| AUAAAAGCGCCAGAACUACAGAAAUGUAGUUGACGAGGAGGAGGUUUAUCGAAUUUUUGGCGGGUGCCUCCAAA [C58U A64G] | s⁻¹ | = | 8.51e-05 |
| AUAAAAGCGCUAGAACUACAGAAAUGUAGUUGACGAGGAGGAGGUUUAUCGAAUUUUGGGCGGAUGUCGCCAAA [C11U C58G C67U U69G] | s⁻¹ | = | 6.72e-05 |
| AUAAAAGCGCCAGAACUACAGAAAUGUACUUGACGAGGAGGUGGUUUAUCGAAUUUUCGGCGGACGCCUCCAAA [G29C A42U U65C] | s⁻¹ | < | 1e-05 |
| AUAAAAGCGCCAGAACUACAGAAAUGUAGUUGACGAGGAGUAGGAUUAUCGAAUUUUCGGCGGAUGCCUCCAAA [G41U U45A] | s⁻¹ | = | 0.000309 |
| AUAAAAGCGCCGGAACUACAGAAAUGUAGUUGACGAGGAGGAGGUUUAUCGAAUUUUCGGCCGAUGCCUCCAAA [A12G G62C] | s⁻¹ | < | 1e-05 |
| AUAAAAGCGCCAGAACUACAGAAAUGUAGUUGACGAGGAGGAGGAUUAUCGAAUCUUCGGCGGAUGCCUCCAAA [U45A U55C] | s⁻¹ | = | 0.024 |
| AUAAAAGCGCCAGAACUACAGAAAUGUAGUUGACGAGGAGGAGGUUUAUCGAAUUCUCGUCGGAUGCCUCCAAA [U56C G60U] | s⁻¹ | < | 1e-05 |
| AUAAAAUCGCCAGAACUACAGAAAUGUAGUUGACAAGGAGGAGGUUUAUCGAAUUUUCGGCGGAUGCCUCCAAA [G7U G35A] | s⁻¹ | < | 1e-05 |
| AUAAAAGCGCCAGAACUACAGAAAUGUAGUUGACGAAGAGGAGGUUUAUCGACUUUUCGGCGGAUGCCUCCAAA [G37A A53C] | s⁻¹ | = | 0.000468 |
| AUAAAAGCGCCAGAAGUACAGAAAUGUAGUUGACGAGGAGGAGUUUUAUCGAAUUUUCGGCGGAUGCCUCCAAA [C16G G44U] | s⁻¹ | = | 2.26e-05 |
| AUAAAACCCCCAGAACUACAGAAAUGUAGUCGACGAGGAAGAGGUUUAUCGAAUUUUCGGCGGAUGCCUCCAAA [G7C G9C U31C G40A] | s⁻¹ | < | 1e-05 |
| AUAAAAGCGCCACAAAUACAGAAAUGUAGUUGACGAUGAGGAGGUUUAUCGAAUUUUCGGCGGAUGCCUCCAAA [G13C C16A G37U] | s⁻¹ | < | 1e-05 |
| AUAAAAGCUCCAGAACUACAGAAAUGUAGUUGACGAGGAGGAGGUUUAUCCAAUUUUCGGCGGAUGCCUCCAAA [G9U G51C] | s⁻¹ | < | 1e-05 |
| AUAAAAGCGCCAGAACUACAGAAAUGUAGUUGACAAGGAGGAUGUUUAUCGAAUUUUCGGCGGAUGCCUCCAAA [G35A G43U] | s⁻¹ | < | 1e-05 |

Source of measurements: the supplement of paper PMC7125110
